- method: Body and organ weights after oral gavage in CD-1 mice (Example 7)
- Format: in vivo
- setup.conditions: 500 mg/kg oral gavage once daily for 4 weeks, end of study
Listing: Liver with gallbladder weight of selected substances
The response must be a number in g with no trailing unit.

Which Liver with gallbladder weight value belongs to 830025 (antisense TTTGTAAATCGAAAGC; 3-10-3 cEt gapmer, further chemistry not given here) [compound 830025] ?
1.88

// returns reported Liver with gallbladder weight for input 790615 (CCAATGAGAATGCTTC; 3-10-3 cEt gapmer, further chemistry not given here) [compound 790615]
1.88

What value of Liver with gallbladder weight has been recorded for this entry: 830037 (antisense CTATTGGCTGATCTGG; 3-10-3 cEt gapmer, further chemistry not given here) [compound 830037]
1.93
